Target: human mGlu5a receptor (Homo sapiens (Human), UniProt P41594)
Sequence (P41594 other isoform, or with tags, fused parts or gaps): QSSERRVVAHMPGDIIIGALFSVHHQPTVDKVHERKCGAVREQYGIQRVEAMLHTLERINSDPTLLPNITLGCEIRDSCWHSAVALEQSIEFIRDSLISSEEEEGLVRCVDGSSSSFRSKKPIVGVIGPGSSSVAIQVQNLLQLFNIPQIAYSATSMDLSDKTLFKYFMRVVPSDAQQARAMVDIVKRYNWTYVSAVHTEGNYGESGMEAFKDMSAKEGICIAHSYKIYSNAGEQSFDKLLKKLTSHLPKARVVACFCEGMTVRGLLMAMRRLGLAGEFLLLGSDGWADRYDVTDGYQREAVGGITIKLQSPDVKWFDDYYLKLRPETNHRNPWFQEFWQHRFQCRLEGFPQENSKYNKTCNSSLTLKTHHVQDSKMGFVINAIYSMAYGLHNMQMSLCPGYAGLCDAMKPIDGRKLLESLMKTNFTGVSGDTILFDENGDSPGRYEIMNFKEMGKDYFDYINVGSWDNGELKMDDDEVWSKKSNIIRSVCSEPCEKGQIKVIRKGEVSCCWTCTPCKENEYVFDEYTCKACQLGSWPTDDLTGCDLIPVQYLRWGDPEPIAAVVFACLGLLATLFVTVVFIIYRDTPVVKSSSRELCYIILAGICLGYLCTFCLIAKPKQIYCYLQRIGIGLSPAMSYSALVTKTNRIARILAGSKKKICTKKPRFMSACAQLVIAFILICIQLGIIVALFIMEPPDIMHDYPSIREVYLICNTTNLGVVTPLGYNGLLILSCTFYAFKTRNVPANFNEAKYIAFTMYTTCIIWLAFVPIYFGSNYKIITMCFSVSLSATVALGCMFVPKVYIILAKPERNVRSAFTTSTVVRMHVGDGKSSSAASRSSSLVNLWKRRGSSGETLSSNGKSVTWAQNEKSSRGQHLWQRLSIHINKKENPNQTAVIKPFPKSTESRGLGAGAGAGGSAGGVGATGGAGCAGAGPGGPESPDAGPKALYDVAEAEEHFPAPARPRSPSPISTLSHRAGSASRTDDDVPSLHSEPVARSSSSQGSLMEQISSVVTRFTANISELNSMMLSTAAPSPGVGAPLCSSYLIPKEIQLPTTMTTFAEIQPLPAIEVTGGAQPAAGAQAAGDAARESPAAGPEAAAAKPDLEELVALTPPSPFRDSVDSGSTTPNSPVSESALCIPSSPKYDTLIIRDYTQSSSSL
Assay: MPEP binding assay ([3H]MPEP displacement)
Conditions: [3H]MPEP 2 nM, EBNA cell membranes; read-out: mGlu5-MPEP binding EC50
# note: boundary value 4 nM maps to No; EC50 below it maps to Yes

{"columns": ["COMPOUND", "ASSIGNED CATEGORY"],
 "data": [
  ["CN1C(=O)N(c2ccc(C#Cc3ccccc3)cn2)[C@@H]2CC[C@@H]21", "No"],
  ["CN1C(=O)N(c2ccc(C#Cc3cccc(F)c3)cn2)[C@@H]2CC[C@@H]21", "No"],
  ["CN1C(=O)N(c2ccc(C#Cc3cccc(F)c3)cn2)[C@@H]2CCC[C@@H]21 [Ref. 1; Ex. 109, reference compound]", "No"],
  ["CN1C(=O)N(c2ccc(C#Cc3cc(F)ccc3F)cn2)[C@@H]2CC[C@@H]21", "Yes"]
]}

----------
Molecular target: human mGlu5a receptor (Homo sapiens (Human))
Test: Intracellular Ca2+ mobilization assay (mGlu5 PAM assay)
Format: cell-based
Settings: PAM or NAM

{"columns": ["COMPOUND", "Activity profile"],
 "data": [
  ["CN1C(=O)N(c2ccc(C#Cc3ccccc3)cn2)[C@@H]2CC[C@@H]21", "NAM"],
  ["CN1C(=O)N(c2ccc(C#Cc3cc(F)ccc3F)cn2)[C@@H]2CC[C@@H]21", "NAM"],
  ["CN1C(=O)N(c2ccc(C#Cc3cccc(F)c3)cn2)[C@@H]2CC[C@@H]21", "NAM"],
  ["CN1C(=O)N(c2ccc(C#Cc3ccccc3)cn2)[C@@H]2CCC[C@@H]21 [Ref. 1; Ex. 106, reference compound]", "PAM"],
  ["CN1C(=O)N(c2ccc(C#Cc3ccc(F)cc3)cn2)[C@@H]2CC[C@@H]21", "NAM"],
  ["CN1C(=O)N(c2ccc(C#Cc3cccc(F)c3)cn2)[C@@H]2CCC[C@@H]21 [Ref. 1; Ex. 109, reference compound]", "PAM"]
]}

----------
Molecular target: human mGlu5a receptor (Homo sapiens (Human), UniProt P41594)
Assay: MPEP binding assay ([3H]MPEP displacement)
Conditions: comparison table
PROPERTY MEASURED: log10 Ki (log10 of the value in nM)

{"columns": ["MOLECULE", "log10 Ki"],
 "data": [
  ["CN1C(=O)N(c2ccc(C#Cc3ccccc3)cn2)[C@@H]2CCC[C@@H]21 [Ref. 1; Ex. 106, reference compound]", 0.90],
  ["CN1C(=O)N(c2ccc(C#Cc3ccc(F)cc3)cn2)[C@@H]2CC[C@@H]21", 0.60],
  ["CN1C(=O)N(c2ccc(C#Cc3ccccc3)cn2)[C@@H]2CC[C@@H]21", 0.95],
  ["CN1C(=O)N(c2ccc(C#Cc3cccc(F)c3)cn2)[C@@H]2CC[C@@H]21", 0.70],
  ["CN1C(=O)N(c2ccc(C#Cc3cccc(F)c3)cn2)[C@@H]2CCC[C@@H]21 [Ref. 1; Ex. 109, reference compound]", 1.57],
  ["CN1C(=O)N(c2ccc(C#Cc3cc(F)ccc3F)cn2)[C@@H]2CC[C@@H]21", 0.48]
]}
